Assay: Plasma pharmacokinetics after a single subcutaneous administration of LEN
Format: in vivo, rhesus macaques
Conditions: male, Indian-origin (outbred), rhesus monkey, plasma, subcutaneous, 5 mg/kg, Plasma LEN (Mean), 5 mg/kg sc, week 11 post dose
MEASUREMENT_NAME: concentration at 11 week

Enquiry: Given the compound `CC(C)(C#Cc1ccc(-c2ccc(Cl)c3c(NS(C)(=O)=O)nn(CC(F)(F)F)c23)c([C@H](Cc2cc(F)cc(F)c2)NC(=O)Cn2nc(C(F)(F)F)c3c2C(F)(F)[C@@H]2C[C@H]32)n1)S(C)(=O)=O` , what is its reported concentration at 11 week?
Return: 4.16 nM

---

Experiment: Plasma pharmacokinetics after a single subcutaneous administration of LEN
Type: in vivo, rhesus macaques
Conditions: male, Indian-origin (outbred), rhesus monkey, plasma, subcutaneous, 10 mg/kg, Plasma LEN (Mean), 10 mg/kg sc, week 14 post dose
MEASUREMENT_NAME: concentration at 14 week (nM)
Quick note: give the figure in nM, leave out the unit.

Enquiry: Given the compound CC(C)(C#Cc1ccc(-c2ccc(Cl)c3c(NS(C)(=O)=O)nn(CC(F)(F)F)c23)c([C@H](Cc2cc(F)cc(F)c2)NC(=O)Cn2nc(C(F)(F)F)c3c2C(F)(F)[C@@H]2C[C@H]32)n1)S(C)(=O)=O [LEN, Lenacapavir] , what is its reported concentration at 14 week?
Return: 3.63

---

Assay: Plasma pharmacokinetics after a single subcutaneous administration of LEN
Type: in vivo, rhesus macaques
Conditions: male, Indian-origin, outbred, rhesus monkey, plasma, subcutaneous, 75 mg/kg, Plasma LEN (Mean), 75 mg/kg sc, week 17 post dose
MEASUREMENT_NAME: concentration at 17 week
Please state the number and follow it with the unit.

Enquiry: Given the compound CC(C)(C#Cc1ccc(-c2ccc(Cl)c3c(NS(C)(=O)=O)nn(CC(F)(F)F)c23)c([C@H](Cc2cc(F)cc(F)c2)NC(=O)Cn2nc(C(F)(F)F)c3c2C(F)(F)[C@@H]2C[C@H]32)n1)S(C)(=O)=O [LEN, Lenacapavir] , what is its reported concentration at 17 week?
Return: 24.5 nM

---

Assay: Plasma pharmacokinetics after a single subcutaneous administration of LEN
Type: in vivo, rhesus macaques
Details: male, outbred Indian-origin, rhesus monkey, plasma, subcutaneous, 75 mg/kg, Plasma LEN (Mean), 75 mg/kg sc, week 4 post dose
MEASUREMENT_NAME: concentration at 4 weeks (nM)
Quick note: give the figure in nM, leave out the unit.

Enquiry: Given the compound `CC(C)(C#Cc1ccc(-c2ccc(Cl)c3c(NS(C)(=O)=O)nn(CC(F)(F)F)c23)c([C@H](Cc2cc(F)cc(F)c2)NC(=O)Cn2nc(C(F)(F)F)c3c2C(F)(F)[C@@H]2C[C@H]32)n1)S(C)(=O)=O` , what is its reported concentration at 4 weeks?
Return: 95.8

---

Assay: Plasma pharmacokinetics after a single subcutaneous administration of LEN
Format: in vivo, rhesus macaques
Conditions: male, Indian-origin (outbred), rhesus monkey, plasma, subcutaneous, 75 mg/kg, Plasma LEN (Mean), 75 mg/kg sc, week 16 post dose
Procedure: All animals were housed at Bioqual Inc. For the in vivo SHIV stock titration study, 8 untreated outbred Indian-origin male rhesus macaques aged 3–5 years were challenged intrarectally per round for a total of 5 challenge rounds using increasing virus doses ranging from 0.625 to 100 TCID50, with the 100 TCID50 round performed twice for increased resolution (Supplemental Table 2). Plasma viral load was measured to confirm the infection status. […]
MEASUREMENT_NAME: concentration at 16 week (nM)
Quick note: give the figure in nM, leave out the unit.

Enquiry: Given the molecule `CC(C)(C#Cc1ccc(-c2ccc(Cl)c3c(NS(C)(=O)=O)nn(CC(F)(F)F)c23)c([C@H](Cc2cc(F)cc(F)c2)NC(=O)Cn2nc(C(F)(F)F)c3c2C(F)(F)[C@@H]2C[C@H]32)n1)S(C)(=O)=O` , what is its reported concentration at 16 week?
Return: 30.9
